Values from patent US8481542B2

Molecular target: human Smoothened receptor (Homo sapiens)
Sequence (Q99835 28-787): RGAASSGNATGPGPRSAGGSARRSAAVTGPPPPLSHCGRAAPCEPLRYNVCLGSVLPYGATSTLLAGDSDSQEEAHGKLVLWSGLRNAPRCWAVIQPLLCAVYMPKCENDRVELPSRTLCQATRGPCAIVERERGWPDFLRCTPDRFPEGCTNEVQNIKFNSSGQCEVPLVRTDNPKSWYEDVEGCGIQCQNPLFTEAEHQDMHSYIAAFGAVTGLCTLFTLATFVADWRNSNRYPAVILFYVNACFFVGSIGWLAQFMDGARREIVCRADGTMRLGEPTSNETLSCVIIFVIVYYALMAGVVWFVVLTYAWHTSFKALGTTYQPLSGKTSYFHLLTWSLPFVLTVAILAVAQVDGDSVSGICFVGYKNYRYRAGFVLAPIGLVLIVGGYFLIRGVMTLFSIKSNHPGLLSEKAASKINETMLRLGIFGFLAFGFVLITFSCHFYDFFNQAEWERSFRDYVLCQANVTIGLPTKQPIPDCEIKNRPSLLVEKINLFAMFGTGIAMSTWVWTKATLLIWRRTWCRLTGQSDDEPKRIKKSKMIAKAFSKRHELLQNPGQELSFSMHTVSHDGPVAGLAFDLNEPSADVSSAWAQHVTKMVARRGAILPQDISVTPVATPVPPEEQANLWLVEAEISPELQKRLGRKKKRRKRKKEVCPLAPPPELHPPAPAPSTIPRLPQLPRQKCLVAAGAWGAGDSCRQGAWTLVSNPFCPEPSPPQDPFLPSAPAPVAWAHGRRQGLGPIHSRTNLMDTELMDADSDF
Test: Smo binding assay, displacement of radio-labeled smoothened agonist, filter binding format (human)
Settings: examples of the present invention, exact values; read-out: Human Smo bdg., IC50
pIC50: −log10 of the molar value.
Entries annotated with measured pIC50
quantity-measured: pIC50

> print(dat)
                                    compound  quantity.measured  reading
 1  CC(C)(O)c1ccc(N2CCN(c3nnc(Cc4ccc(F)cc4)c4c3CCCC4)CC2)nc1              pIC50     7.85
 2  CC(=O)c1cnc(N2CCN(c3nnc(Cc4ccccc4)c(C)c3C)C[C@H]2C)cn1              pIC50     8.10
 3  Cc1c(Cc2ccccc2)nnc(N2CCN(c3ncc(C(C)(C)O)c(C(F)(F)F)n3)[C@H](C)C2)c1C              pIC50     8.52
 4  Cc1c(Cc2ccc(F)cc2)nnc(N2CCN(c3ccc(C(C)(C)O)cn3)CC2)c1C              pIC50     8.15
 5  C[C@@H]1CN(c2nnc(Cc3ccccc3)c3c2CCC3)CCN1c1ncc(C(C)(C)O)c(C(F)(F)F)n1              pIC50     8.22
 6  CC(C)(O)c1ccc(N2CCN(c3nnc(Cc4ccc(F)cc4)c4c3CCC4)CC2)nc1              pIC50     8.15
 7  C[C@@H]1CN(c2nnc(Cc3ccccc3)c3c2CCC3)CCN1c1cc(C(F)(F)F)c(C(C)(C)O)cn1              pIC50     8.52
 8  Cc1c(Cc2ccc(F)cc2)nnc(N2CCN(c3ncc(C(C)(C)O)c(C(F)(F)F)n3)[C@H](C)C2)c1C              pIC50     8.70
 9  Cc1c(Cc2ccccn2)nnc(N2CCN(c3cnc(C(C)(C)O)cn3)[C@H](C)C2)c1C              pIC50     7.66
10  Cc1c(Cc2ccccc2)nnc(N2CCN(c3cnc(C(C)(C)O)cn3)CC2)c1C              pIC50     7.96
11  CCC(O)(CC)c1cnc(N2CCN(c3nnc(Cc4ccccc4)c(C)c3C)C[C@H]2C)cn1              pIC50     9.00
12  Cc1c(Cc2ccccc2)nnc(N2CCN(c3cnc(C(C)(O)CO)cn3)[C@H](C)C2)c1C (stereo partly shown)              pIC50     7.62
13  C[C@@H]1CN(c2nnc(Cc3ccccc3)c3c2CCC3)CCN1c1cnc(C(C)(C)O)cn1              pIC50     9.00
14  Cc1c(Cc2ccccc2)nnc(N2CCN(c3cnc(C(C)(C)O)cn3)[C@H](C)C2)c1C              pIC50     8.05
15  CC[C@@H]1CN(c2nnc(Cc3ccccc3)c(C)c2C)CCN1c1cnc(C(C)(C)O)cn1              pIC50     8.10
16  Cc1c(Cc2ccncc2)nnc(N2CCN(c3cnc(C(C)(C)O)cn3)[C@H](C)C2)c1C              pIC50     7.54

###

Assay: equilibrium solubility at pH 6.8
Format: physicochemical
Conditions: aqueous buffer, thermodynamic from solid, examples of the present invention
Is solubility thermodynamic at least 40 µM? Then Met. If not, Not met.

> print(dat)
                                   molecule    class
1  Cc1c(Cc2ccncc2)nnc(N2CCN(c3cnc(C(C)(C)O)cn3)[C@H](C)C2)c1C [Example 50]      Met
2  Cc1c(C(O)c2ccccc2)nnc(N2CCN(c3cnc(C(C)(C)O)cn3)[C@H](C)C2)c1C (some centres unmarked) [Example 48]      Met
3  Cc1c(Cc2ccccn2)nnc(N2CCN(c3cnc(C(C)(C)O)cn3)[C@H](C)C2)c1C [Example 54]      Met
4  Cc1c(Cc2ccccc2)nnc(N2CCN(c3cnc(C(C)(C)O)cn3)[C@@H](C)C2)c1C [Example 90]  Not met
5  Cc1c(Cc2ccccc2)nnc(N2CCN(c3cnc(C(C)(C)O)cn3)[C@H](C)C2)c1C [Example 88]      Met
6  C[C@@H]1CN(c2nnc(Cc3ccccc3)c3c2CCC3)CCN1c1cnc(C(C)(C)O)cn1 [Example 93]  Not met
7  Cc1c(Cc2ccccc2)nnc(N2CCN(c3cnc(C(C)(C)O)cn3)CC2)c1C [Example 89]  Not met
8  Cc1c(Cc2ccccc2)nnc(N2CCN(c3cnc(C(C)(O)CO)cn3)[C@H](C)C2)c1C (some centres unmarked) [Example 144]      Met
